Sourced from PubChem BioAssay (NCATS)

# target_desc: Phospholipid hydroperoxide glutathione peroxidase GPX4 (Homo sapiens)
# experimental_details: Primary qHTS Assay for Inhibitors of Recombinant Selenoprotein Glutathione Peroxidase 4 (GPX4) (AID 1845192); also: nearly all actives have a fitted effect of over 65% in size
# condition_info: recombinant GPX4, GR-coupled NADPH fluorescence, 15 min; series mostly up to 50 µM
Inconclusive results are not listed. The source made the active and inactive calls. Calls follow the shape of the dose curve; as a rule, active = well fitted inhibition curve with a large enough effect; inconclusive = small, poorly fitted or top-dose-only effect; inactive = flat fitted curve, though single readings scatter.
parameter_measured: outcome

These recorded examples may help you get a feel for the data.
CC1(C)O[C@@H]2C[C@H]3[C@@H]4C[C@H](F)C5=CC(=O)C=C[C@]5(C)[C@@]4(F)[C@@H](O)C[C@]3(C)[C@]2(C(=O)CO)O1 :: inactive
CO[C@@H]1[C@@H](O[C@@H]2O[C@H](C)[C@@H](O[C@H]3C[C@@](C)(O)[C@@H](O)[C@H](C)O3)[C@H](N(C)C)[C@H]2O)[C@@H](CC=O)C[C@@H](C)[C@@H](O[C@@H]2CC[C@H](N(C)C)[C@@H](C)O2)/C=C/C=C/C[C@@H](C)OC(=O)C[C@H]1OC(C)=O :: inactive
COC(=O)/C=C\C(=O)OC :: inactive
CCCCCC(=O)O[C@]1(C(C)=O)CC[C@H]2[C@@H]3CCC4=CC(=O)CC[C@]4(C)[C@H]3CC[C@@]21C :: inactive
O=C(CO)[C@@H](O)[C@H](O)[C@@H](O)CO :: inactive
O=C(CCOCCOCCOCCOCCC(=O)Nc1c(I)cc(I)c(C(=O)O)c1I)Nc1c(I)cc(I)c(C(=O)O)c1I :: inactive
C[N+](C)(C)CCO :: inactive

API: the following record is the query input.
// query Supply outcome value. Item: CO[C@]1(NC(=O)CSC(F)F)C(=O)N2C(C(=O)O)=C(CSc3nnnn3CCO)CO[C@H]21
// result inactive

----------
# experimental_details: qHTS of pediatric cancer cell lines to identify multiple opportunities for drug repurposing: Primary screen for TC32 cells (AID 1347089); also: nearly all actives have a fitted effect of over 60% in size
# condition_info: TC32 Ewing sarcoma viability, CellTiter-Glo luminescence, 48 h; series mostly up to 45.8 µM
Records with an inconclusive call do not appear. Calls of active or inactive are those of the source. The call rests on the fitted dose curve; in most records, active means well fitted cell-killing curve with a large enough effect; inconclusive means small, poorly fitted or top-dose-only effect; inactive means flat fitted curve, though single readings scatter.
# valid calls are class 1 = active, class 0 = inactive; nothing else

// query In this assay, the call recorded for CN1CCN(N)CC1 was what?
// result class 0

// query Short answer needed: outcome of this test for C1N2CN3CN1CN(C2)C3 ?
// result class 0

// query Status in this test for O=C(O)CNC(=O)CNC(=O)CNC(=O)CSC(=O)c1ccccc1 ?
// result class 0

// query Returns: the outcome recorded for CSc1ccc(/C=C2/C(C)=C(CC(=O)O)c3cc(F)ccc32)cc1 in this assay.
// result class 0

// query Answer briefly: the call reported for O=C(Oc1ccccc1)c1cccc(C(=O)Oc2ccccc2)c1 in this assay.
// result class 0

// query Could you check what this test reported for CN1C(=O)c2ccccc2C1=O ?
// result class 0

// query Each compound tested received a call. Report the one for O=[N+]([O-])c1ccc(O)c2ncccc12 .
// result class 1

// query For Cc1ccccc1C(=O)N1CC/C(=N\OS(=O)(=O)O)c2ccc(Cl)cc21 , what call appears in the results of this test?
// result class 0

// query What outcome does the record of this test show for CC(C)C[C@H](NC(=O)CNC(=O)[C@H](Cc1ccc(O)cc1)NC(=O)[C@H](CO)NC(=O)[C@H](Cc1c[nH]c2ccccc12)NC(=O)[C@H](Cc1cnc[nH]1)NC(=O)[C@@H]1CCC(=O)N1)C(=O)N[C@@H](CCCN=C(N)N)C(=O)N1CCC[C@H]1C(=O)NCC(N)=O (stereo in doubt) ?
// result class 0

// query Please state the recorded outcome for this compound: CC(=O)OC/C=C(C)/C=C/C=C(C)/C=C/C1=C(C)CCCC1(C)C
// result class 0

// query Hi team, can someone confirm the assay call for CC(=O)O[C@H]1CC[C@@]2(C)C(=CC[C@@H]3[C@@H]2CC[C@]2(C)C(C(C)=O)=CC[C@@H]32)C1 ?
// result class 0

// query Would you mind telling me which call this test gave NS(=O)(=O)c1ccc(N2CCCCS2(=O)=O)cc1 ?
// result class 0

// query Outcome? Cc1cccc(C)c1NC(=O)c1cc(S(N)(=O)=O)c(Cl)cc1O
// result class 0

// query Hey, what did the test say about Nc1c(I)cc(I)c(C(=O)N(CCC(=O)O)c2ccccc2)c1I ?
// result class 0

// query Name the outcome recorded for CCCCCCn1c(=O)c2c(ncn2C)n(C)c1=O in the assay.
// result class 0

// query Please indicate how the test categorized C[N+]1(CC2COC(c3ccccc3)(c3ccccc3)O2)CCCCC1 (stereo not drawn) .
// result class 0

// query What classification did O=C(CCCl)NCCc1ccccc1 end up with in this test?
// result class 0

// query I would be grateful if you could indicate the recorded call for CO[C@]1(NC(=O)CSC(F)F)C(=O)N2C(C(=O)O)=C(CSc3nnnn3CCO)CO[C@H]21 .
// result class 0

// query Short answer needed: outcome of this test for Cc1cc(O)c2c(O)c3c(O)cccc3cc2c1 ?
// result class 0

// query Hello, I am checking results. What call was entered for Cc1cc(CCCOc2c(C)cc(-c3noc(C(F)(F)F)n3)cc2C)on1 ?
// result class 0

// query Test call, this compound: CCN(CC)CCN
// result class 0

// query Returns: the outcome recorded for OCCCc1ccccc1 in this assay.
// result class 0

// query For CN1C(=O)CC(C)(c2ccccc2)C1=O (stereo not drawn) , which call appears in the assay record?
// result class 0

----------
# experimental_details: qHTS to identify inhibitors of the type 1 interferon - major histocompatibility complex class I in skeletal muscle: primary screen against the NCATS Pharmaceutical Collection (AID 1347407);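 also: luminescence of HiBiT knocked into endogenous HLA-B as interferon-induced MHC class I level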
# condition_info: human skeletal muscle cells, IFN-b-induced MHC-I HiBiT luminescence, 24 h; series mostly up to 45.9 µM
# Description: Assay Submitter (PI): Travis B. Kinder Ph.D. & James Inglese Ph.D. Assay Development and Screening Technology Laboratory (ADST) National Center for Advancing Translational Sciences (NCATS), Rockville, MD National Institute of Health (NIH), Bethesda, Maryland […]
Inconclusive results are not listed. Activity calls are given as the source filed them. Calls come from the whole dose curve; as a rule, active = well fitted inhibition curve with a large enough effect; inconclusive = small, poorly fitted or top-dose-only effect; inactive = flat fitted curve, though single readings scatter.
Respond with a class label; see yes (1) = active, no (0) = inactive

// query Fill in: this test's call for NC(=O)C1(N2CCCCC2)CCN(CCCN2c3ccccc3CCc3ccc(Cl)cc32)CC1 is ___
// result yes (1)

// query How did this test come out for Cc1c(F)cc2c(=O)c(C(=O)O)cn3c2c1CCC3C (stereo unspecified) ?
// result no (0)

// query Record request — test call for COC(=O)c1c(Cl)c(Cl)c(C(=O)OC)c(Cl)c1Cl
// result no (0)

// query Just curious, what result did CCN1CCN(C(=O)N[C@@H](C(=O)N[C@@H]2C(=O)N3[C@@H]2SC(C)(C)[C@H]3C(=O)O)c2ccccc2)C(=O)C1=O get here?
// result no (0)

// query Query: recorded result category for CCCCC(O)/C=C(C)/C=C/C=C/C(=O)N1CCCC1=O (stereo unspecified) in this test
// result no (0)

// query Just curious, what result did CCCCCOc1ccc(C2SC(=O)NC2=O)cc1OCC (stereo unspecified) get here?
// result no (0)

----------
Please respond with reported max response for every item in the list.
# System: HaCat
# experimental_details: Cytotoxic Profiling of Annotated Libraries Using Quantitative High-Throughput Screening (AID 1296008); also: % is scaled to controls: 0 for no effect and ±100 for the full control effect; nearly all actives have a fitted effect of over 60% in size
# condition_info: Five cell lines viability, CellTiter-Glo ATP luminescence, 48-72 h; hits give low values
Inconclusive results are not listed. Where a SMILES comes first, the peptide text is derived from it.
Give just the number in %; leave the unit off.

// query Tell me its max response given CCC[C@H](N[C@@H](C)C(=O)N1[C@H](C(=O)O)C[C@@H]2CCCC[C@@H]21)C(=O)OCC as the entry.
// result 1.07

// query Query max response for CCC(CN)=C(c1ccccc1)c1ccccc1
// result 1.4

// query Please give measured max response of the following entry: O=C(c1cc(O)c(O)c(O)c1)c1ccc(O)c(O)c1O
// result -2.77

// query Please give measured max response of the following entry: Brc1ccccc1-c1ccccc1
// result -6.21

// query Retrieve max response measured for CSCC[C@H](NC(=O)[C@H](Cc1c[nH]c2ccccc12)NC(=O)CCNC(=O)OC(C)(C)C)C(=O)N[C@@H](CC(=O)O)C(=O)N[C@@H](Cc1ccccc1)C(N)=O and print it.
// result -2.67

// query Report max response for Fc1ccc(C(c2ccc(F)cc2)N2CCNCC2)cc1
// result -17.9

// query Answer with the recorded max response for the molecule listed here: COc1cc2c(cc1OC)CN(C(=O)[C@H](C)N[C@@H](CCc1ccccc1)C(=O)O)[C@H](C(=O)O)C2
// result 0.663

// query Fill in reported max response for this entry: Cc1ccc(Cl)c(OCC(O)CNC(C)(C)C)c1 (configuration not stated)
// result 2.84

// query Give reported max response value for C#Cc1ccc(-c2ccccc2F)cc1
// result 3.65

// query Report max response for CC(C)C[C@@H]1[C@H](c2ccccc2)OC(=O)N1CCCN1CCCCCC1
// result -13.9

// query // Input: O=C1NC(=O)/C(=C/c2ccc3c(c2)OC(F)(F)O3)S1 . Output its max response only.
// result -3.64

// query Give max response for Cc1c(F)cc2c(=O)c(C(=O)O)cn3c2c1CCC3C (configuration not stated)
// result -5.41

// query Name the recorded max response of the item CCc1cc(S(=O)(=O)O)c2cc(C(C)C)cccc1-2 in your answer.
// result 0.42

// query State its max response: CC(C)(C)C(O)/C=C/c1ccc2c(c1)OCO2 (configuration not stated)
// result -0.175

// query Provide measured max response value, entry: O=[N+]([O-])c1cncn1CCN1CCOCC1
// result -14.4

// query Retrieve max response measured for CCN1C(=O)c2ccccc2C1Nc1ccc(OCCN2CCCCC2)cc1 (configuration not stated) and print it.
// result -6.62

// query Supply recorded max response for O=S(=O)(O)c1ccc2nc(-c3ccccc3)[nH]c2c1 here.
// result -12.3

// query Indicate the recorded max response value for this molecule: O=C(O)Cc1ccc(OCCNC[C@H](O)c2ccccc2)cc1
// result 2.67

// query Read off the recorded max response for COc1ccccc1OCC1CNC(=O)O1 (configuration not stated)
// result -20.6

// query Give the reported value of max response for this record: Cn1cc(S(C)=O)c(=O)c2ccc(F)cc21 (configuration not stated)
// result -31

// query Return value of max response for input CC1(C)O[C@@H]2C[C@H]3[C@@H]4CCC5=CC(=O)C=C[C@]5(C)[C@@]4(F)[C@@H](O)C[C@]3(C)[C@]2(C(=O)CO)O1 , no commentary.
// result -7.17

// query Specify reported max response for the molecule shown: Nc1ccc(C(=O)N2CC3CC(CN(Cc4ccccc4)C3)C2)cc1
// result 3.27

// query Annotate the molecule O=P(O)(O)OCC(O)CO (configuration not stated) with its measured max response.
// result 0.361

// query Respond only with max response recorded for CCCCC(CC)COC(=O)c1ccccc1C(=O)O (configuration not stated)
// result -1.62

// query Complete the entry with the larger response for CC(=O)OCC(=O)[C@@]1(O)CCC2C3CCC4=CC(=O)CC[C@]4(C)C3[C@@H](O)C[C@@]21C (some centres not stated)
// result 3.13

// query Annotate the molecule CCCCC(=O)OCC(=O)[C@H]1[C@H](C)C[C@H]2[C@@H]3C[C@H](F)C4=CC(=O)C=C[C@]4(C)[C@@]3(F)[C@@H](O)C[C@@]21C with its measured max response.
// result 1.04

// query Please look at this molecule and report its max response: CCCCCC1Nc2cc(C(F)(F)F)c(S(N)(=O)=O)cc2S(=O)(=O)N1 (configuration not stated)
// result -13.3

// query Indicate the recorded max response value for this molecule: CN1CCN(N)CC1
// result 1.4

// query Look up and state reported max response for Nc1nc(=O)n([C@@H]2O[C@H](CO)[C@@H](O)[C@@H]2F)cc1I
// result 3.07

// query Find the measured max response of CN(C)[C@@H]1C(=O)C(C(N)=O)=C(O)[C@@]2(O)C(=O)C3=C(O)c4c(O)cccc4C[C@H]3C[C@@H]12 and report it.
// result -5.74

// query Please report max response for the following molecule: COC(=O)C1=CO[C@@H](O)[C@@H]2C(CO)=CC[C@H]12
// result -1.37

// query Supply measured max response of O=C(O)CCCC[C@@H]1SC[C@@H]2NC(=O)N[C@@H]21 in your reply.
// result 4.46

// query Using known records, supply max response for CCCCNc1ccc(C(=O)OCCN(CC)CC)cc1
// result -28.3

// query Give max response for the following molecule: COc1cc(S(N)(=O)=O)cc(C(=O)O)c1OC
// result 2

// query Look up max response of O=[N+]([O-])c1ccc(-c2nc(-c3ccc(F)cc3)c(-c3ccncc3)[nH]2)cc1 and report it.
// result -22.5

// query Write down max response measured for item O=C(CCCCC(=O)Nc1c(I)cc(I)c(C(=O)O)c1I)Nc1c(I)cc(I)c(C(=O)O)c1I
// result 4.99

// query Input CN1C(CSCC(F)(F)F)Nc2cc(Cl)c(S(N)(=O)=O)cc2S1(=O)=O (configuration not stated) , output reported max response.
// result 4.02

// query Report measured max response; entry is CCOC(=O)Oc1ccc(CCNC(=O)[C@H](CCSC)NC(C)=O)cc1OC(=O)OCC
// result -20.7

// query For the molecule CCCC(=O)O[C@]1(C(=O)CCl)[C@@H](C)C[C@H]2[C@@H]3CCC4=CC(=O)C=C[C@]4(C)[C@@]3(F)C(=O)C[C@@]21C , report max response.
// result -2.69

// query Please give measured max response of the following entry: O=C(O)C(=O)Nc1cccc(-c2nn[nH]n2)c1
// result -5.35

// query Indicate its recorded max response; the molecule in question is CC(=O)O[C@H]1CC[C@@]2(C)C(=CC[C@@H]3[C@@H]2CC[C@]2(C)C(C(C)=O)=CC[C@@H]32)C1
// result -12.2

// query Give max response for CC(=O)N[C@@H](CO)C(=O)N[C@@H](CC(=O)O)C(=O)N[C@@H](CCCCN)C(=O)N1CCC[C@H]1C(=O)O (Ac-SDKP-OH)
// result -26.1
